Record form. Attribute: TGI. Fill in for each entry.
system: IGROV1 ovarian; assay: NCI tumour cell line growth inhibition, 384-well format
Give bare numbers, in µM.

Here is how some compounds turned out for TGI.
CCOc1ccn(-c2ccc(F)cc2)c(=O)c1C(=O)Nc1ccc(Oc2ccnc(N)c2Cl)c(F)c1
40.5
N#Cc1cnc(Nc2cc(NC[C@H]3CNCCO3)c(C(F)(F)F)cn2)cn1
47.6

Kindly consider the entry below.
In: Quick one: give measured TGI for Cn1cc(-c2cnn3c(N)c(Br)c(C4CCCNC4)nc23)cn1 (centres undefined)
Out: 13.2

---

tested on: SF-268 CNS; experiment: NCI tumour cell line growth inhibition, 384-well format
PROPERTY_MEASURED: TGI (µM)
Answers are plain numbers, in µM.

C#CCN(c1ccc(C(=O)N[C@@H](CCC(=O)N[C@H](CCC(=O)O)C(=O)O)C(=O)O)cc1)C1CCc2cc3nc(CO)[nH]c(=O)c3cc21 (some centres undefined)
27.5
Cc1cc(Nc2nc(N[C@@H](C)c3ncc(F)cn3)ncc2Cl)n[nH]1
63.4
N#Cc1cnc(Nc2cc(NC[C@H]3CNCCO3)c(C(F)(F)F)cn2)cn1
30.1

Kindly consider the entry below.
In: Quick one: give measured TGI for `CCOc1ccn(-c2ccc(F)cc2)c(=O)c1C(=O)Nc1ccc(Oc2ccnc(N)c2Cl)c(F)c1`
Out: 8.11

---

tested on: IGROV1 ovarian; assay: NCI tumour cell line growth inhibition, 384-well format
PROPERTY_MEASURED: GI50

Here is how some compounds turned out for GI50.
Cc1cc(Nc2nc(N[C@@H](C)c3ncc(F)cn3)ncc2Cl)n[nH]1
27.8 µM
CCOc1ccn(-c2ccc(F)cc2)c(=O)c1C(=O)Nc1ccc(Oc2ccnc(N)c2Cl)c(F)c1
6.27 µM

List reported GI50 for each of these compounds:
1. C#CCN(c1ccc(C(=O)N[C@@H](CCC(=O)N[C@H](CCC(=O)O)C(=O)O)C(=O)O)cc1)C1CCc2cc3nc(CO)[nH]c(=O)c3cc21 (some centres undefined)
2. N#Cc1cnc(Nc2cc(NC[C@H]3CNCCO3)c(C(F)(F)F)cn2)cn1

Out:
60.3 µM
9.13 µM
